Catalogue of RORγt (FL) Reporter Assay B or C, % inhibition (value marked *) readings, one per entry.
Target: full-length human RORγt (Homo sapiens (Human))
Assay Info: RORγt (full-length human) reporter assay, Conditions B or C
Assay type: cell-based
Run Conditions: Conditions B or C; marked *: footnote not given

Solved entries (count: 5):
[
  {
    "Molecule": "CCC(C)(C)Nc1cc(C(F)(F)F)c(-c2sc(C(=O)NCC(C)(C)O)nc2C(=O)N2CC(F)(F)C[C@@H]2C)cn1",
    "Value Observed": "110* %"
  },
  {
    "Molecule": "C[C@H]1CC(F)(F)CN1C(=O)c1nc(C(=O)NCC(C)(C)O)sc1-c1cnc(NCC(C)(C)C(F)(F)F)cc1C(F)(F)F",
    "Value Observed": "104* %"
  },
  {
    "Molecule": "CC[C@H](Nc1cc(C(F)F)c(-c2sc(C(=O)N[C@H]3CC[C@H](O)C3)nc2C(=O)N2C3CCC2CC3)cn1)C(F)(F)F",
    "Value Observed": "104* %"
  },
  {
    "Molecule": "C[C@H]1CCCN1C(=O)c1nc(C(=O)NCC(C)(C)O)sc1-c1cnc(NCC(C)(C)C)cc1C(F)F",
    "Value Observed": "110* %"
  },
  {
    "Molecule": "C[C@@H](O)[C@@H](C)NC(=O)c1nc(C(=O)N2CCC[C@@H]2C)c(-c2cnc(NC(C)(C)C)cc2C(F)(F)F)s1 (relative stereo)",
    "Value Observed": "101* %"
  }
]

Report RORγt (FL) Reporter Assay B or C, % inhibition (value marked *) for "CC[C@H](Nc1cc(C(F)F)c(-c2sc(C(=O)NCC(C)(C)O)nc2C(=O)N2CC(F)(F)C[C@@H]2C)cn1)C(F)(F)F" 86* %

Item "C[C@H](NC(=O)c1nc(C(=O)N2CC(F)(F)C[C@@H]2C)c(-c2cnc(NC3(C)CCC3)cc2C(F)(F)F)s1)C(C)(C)O" : provide RORγt (FL) Reporter Assay B or C, % inhibition (value marked *) 85* %

----------
Target: human RORγt ligand binding domain (RORγt LBD) (Homo sapiens (Human))
Sequence (P51449 other isoform, or with tags, fused parts or gaps): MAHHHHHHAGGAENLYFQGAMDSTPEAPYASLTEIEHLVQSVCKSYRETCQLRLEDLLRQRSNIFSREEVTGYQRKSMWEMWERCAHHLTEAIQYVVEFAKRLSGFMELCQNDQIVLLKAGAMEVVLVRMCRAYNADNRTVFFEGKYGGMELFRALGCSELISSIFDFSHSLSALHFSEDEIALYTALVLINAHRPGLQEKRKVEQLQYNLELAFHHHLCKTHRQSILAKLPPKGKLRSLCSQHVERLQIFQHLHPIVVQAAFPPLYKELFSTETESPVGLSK
Assay Info: RORγt ThermoFluor® assay (thermal shift binding)
Run Conditions: read-out: ThermoFluor® Assay, Kd
Recorded Endpoint: Kd (nM)
Your answer is read as nM, so omit the unit and give the number.

// solved cases for Kd follow
[
  {
    "Compound": "C[C@H]1CC(F)(F)CN1C(=O)c1nc(C(=O)NCC(C)(C)O)sc1-c1cnc(NCC2(C)CC2)cc1C(F)(F)F [Example 277]",
    "Value Observed": 2.4
  },
  {
    "Compound": "O=C(N[C@@H]1CCC[C@H]1O)c1nc(C(=O)N2C3CCC2CC3)c(-c2cnc(N[C@@H](C3CC3)C(F)(F)F)cc2C(F)F)s1 [Example 439]",
    "Value Observed": 0.27
  }
]

Now turn to the next compound.
Determine its reported Kd: CC[C@H](Nc1cc(C(F)F)c(-c2sc(C(=O)N[C@H]3CC[C@@H]3O)nc2C(=O)N2CCC[C@@H]2C)cn1)C(F)(F)F (relative stereo) [Example 377] 3.4

----------
inhibition at 6 µM overview
Target: full-length human RORγt (Homo sapiens (Human))
Assay Info: RORγt (full-length human) reporter assay, Conditions A
Format: cell-based
Run Conditions: read-out: RORγt (FL) Reporter Assay A, % inhibition @ 6 μM; Conditions A; @ 6 μM
Report the figure in % without appending any unit label.

[
  {
    "Compound": "CC(C)(O)CNC(=O)c1nc(C(=O)N2CCC(F)CC2)c(-c2cnc(NC3CCCC(F)(F)C3)cc2C(F)(F)F)s1 (stereo not drawn)",
    "Unit": "%",
    "inhibition at 6 µM": 96
  },
  {
    "Compound": "CC(C)c1cc(NC2CCCCC2)ncc1-c1sc(C(=O)NCC(C)(C)O)nc1C(=O)N1CCC(F)CC1",
    "Unit": "%",
    "inhibition at 6 µM": 103
  },
  {
    "Compound": "CC(C)(O)CNC(=O)c1nc(C(=O)N2CCC(F)CC2)c(-c2cnc(NC3CCCCC3)cc2C#N)s1",
    "Unit": "%",
    "inhibition at 6 µM": 106
  },
  {
    "Compound": "C[C@H]1CCCCN1C(=O)c1nc(C(=O)NCC(C)(C)O)sc1-c1cnc(NC2CCCCC2)cc1C(F)(F)F",
    "Unit": "%",
    "inhibition at 6 µM": 104
  },
  {
    "Compound": "CC(C)(O)CNC(=O)c1nc(C(=O)N2CCC(F)CC2)c(-c2cnc(NCCC(F)(F)F)c(C(F)(F)F)c2)s1",
    "Unit": "%",
    "inhibition at 6 µM": 80
  },
  {
    "Compound": "COc1cc(-c2sc(C(=O)NCC(C)(C)O)nc2C(=O)N2CCC(F)CC2)cnc1NC1CCCCC1",
    "Unit": "%",
    "inhibition at 6 µM": 88
  },
  {
    "Compound": "CC(C)(O)CNC(=O)c1nc(C(=O)N2CCC(F)CC2)c(-c2cnc(NC3CC(F)(F)C3)cc2C(F)(F)F)s1",
    "Unit": "%",
    "inhibition at 6 µM": 100
  },
  {
    "Compound": "CC(C)(O)CNC(=O)c1nc(C(=O)N2CCC(F)CC2)c(-c2cnc(NC3CCCCC3)c(C(F)F)c2)s1",
    "Unit": "%",
    "inhibition at 6 µM": 110
  }
]

Report measured inhibition at 6 µM on full-length human RORγt (Homo sapiens (Human)); entry: "Cc1c(-c2sc(C(=O)NCC(C)(C)O)nc2C(=O)N2CCC(F)CC2)cnc(NC2CCCCC2)c1F" 85

Tell me its inhibition at 6 µM on full-length human RORγt (Homo sapiens (Human)): "CCOc1cc(NC2CCCCC2)ncc1-c1sc(C(=O)NCC(C)(C)O)nc1C(=O)N1CCC(F)CC1" 85

----------
Target: human RORγt ligand binding domain (RORγt LBD) (Homo sapiens (Human))
Assay Info: RORγt ThermoFluor® assay (thermal shift binding)
Run Conditions: ThermoFluor® Assay, Kd
Recorded Endpoint: pKd
Note: pKd values are expressed as the negative base-10 logarithm of concentration in M.

// fetch pKd given entry C[C@H](Nc1cc(C(F)(F)F)c(-c2sc(C(=O)N[C@H]3COC[C@H]3O)nc2C(=O)N2C3CCC2CC3)cn1)C(F)(F)F (single isomer, unassigned) [Example 255] 7.80

----------
Target: full-length human RORγt (Homo sapiens (Human), UniProt P51449)
Sequence (P51449 other isoform, or with tags, fused parts or gaps): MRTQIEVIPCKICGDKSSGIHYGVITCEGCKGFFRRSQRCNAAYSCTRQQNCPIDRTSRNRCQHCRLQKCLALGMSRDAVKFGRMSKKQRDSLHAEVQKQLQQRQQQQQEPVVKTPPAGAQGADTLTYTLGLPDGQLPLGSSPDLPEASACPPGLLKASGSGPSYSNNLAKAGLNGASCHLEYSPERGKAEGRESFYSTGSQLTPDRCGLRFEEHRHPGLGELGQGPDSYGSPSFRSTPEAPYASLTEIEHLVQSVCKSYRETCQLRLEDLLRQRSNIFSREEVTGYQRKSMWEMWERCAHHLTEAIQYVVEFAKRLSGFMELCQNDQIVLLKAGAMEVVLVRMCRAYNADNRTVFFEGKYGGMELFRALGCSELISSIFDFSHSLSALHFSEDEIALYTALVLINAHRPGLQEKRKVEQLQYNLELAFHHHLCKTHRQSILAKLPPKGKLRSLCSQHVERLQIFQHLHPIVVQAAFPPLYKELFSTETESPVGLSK
Assay Info: RORγt (full-length human) reporter assay, Conditions B or C
Assay type: cell-based
Run Conditions: Conditions B or C; marked *: footnote not given
Recorded Endpoint: RORγt (FL) Reporter Assay B or C, % inhibition (value marked *)

Known results for compounds:
[
  {
    "Compound": "C[C@H]1CCCN1C(=O)c1nc(C(=O)NCC(C)(C)O)sc1-c1cnc(NCC2(C(F)(F)F)CC2)cc1C(F)(F)F",
    "Value Observed": "100* %"
  },
  {
    "Compound": "C[C@H](Nc1cc(C(F)F)c(-c2sc(C(=O)N[C@H]3COC[C@H]3O)nc2C(=O)N2CCC[C@@H]2C)cn1)C(F)(F)F (single isomer, unassigned)",
    "Value Observed": "101* %"
  }
]

Provide measured RORγt (FL) Reporter Assay B or C, % inhibition (value marked *) value, entry: C[C@@H](Nc1cc(C(F)(F)F)c(-c2sc(C(=O)NCC(C)(C)O)nc2C(=O)N2C3CCC2CC3)cn1)C1CCC1 (stereo in doubt) 102* %

Given "C[C@H]1CC(F)(F)CN1C(=O)c1nc(C(=O)N[C@H](C)C(C)(C)O)sc1-c1cnc(NC2(C)CCC2)cc1C(F)(F)F" , respond with its RORγt (FL) Reporter Assay B or C, % inhibition (value marked *). 109* %

Specify RORγt (FL) Reporter Assay B or C, % inhibition (value marked *) for "CC(C)(O)CNC(=O)c1nc(C(=O)N2C3CCC2CC3)c(-c2cnc(NC3(C)CCC3)cc2C(F)(F)F)s1" and stop. 89* %

# return recorded RORγt (FL) Reporter Assay B or C, % inhibition (value marked *) for entry CC[C@H](Nc1cc(C(F)F)c(-c2sc(C(=O)N[C@H]3COC[C@H]3O)nc2C(=O)N2CCC[C@@H]2C)cn1)C(F)(F)F (single isomer, unassigned) 98* %

----------
Target: full-length human RORγt (Homo sapiens (Human), UniProt P51449)
Assay Info: RORγt (full-length human) reporter assay, Conditions B or C
Assay type: cell-based
Run Conditions: Conditions B or C; marked *: footnote not given
Recorded Endpoint: RORγt (FL) Reporter Assay B or C, % inhibition (value marked *)

// worked examples, RORγt (FL) Reporter Assay B or C, % inhibition (value marked *) included
[
  {
    "Compound": "CC[C@H](Nc1cc(C(F)F)c(-c2sc(C(=O)N[C@H](C)C(C)(C)O)nc2C(=O)N2C3CCC2CC3)cn1)C(F)(F)F [Example 242]",
    "Target": "full-length human RORγt (Homo sapiens (Human), UniProt P51449)",
    "Value Observed": "86* %"
  },
  {
    "Compound": "C[C@H]1CCCN1C(=O)c1nc(C(=O)NCC(C)(C)O)sc1-c1cnc(NC2(C(F)(F)F)CCC2)cc1C(F)(F)F [Example 104]",
    "Target": "full-length human RORγt (Homo sapiens (Human), UniProt P51449)",
    "Value Observed": "110* %"
  },
  {
    "Compound": "CC[C@@H](Nc1cc(C(F)(F)F)c(-c2sc(C(=O)NCC(C)(C)O)nc2C(=O)N2C3CCC2CC3)cn1)C1CC1 (stereo in doubt) [Example 131]",
    "Target": "full-length human RORγt (Homo sapiens (Human), UniProt P51449)",
    "Value Observed": "107* %"
  },
  {
    "Compound": "C[C@H]1CCCN1C(=O)c1nc(C(=O)NC[C@H](O)C(C)(C)O)sc1-c1cnc(NC(C)(C)C)cc1C(F)(F)F (single isomer, unassigned) [Example 244]",
    "Target": "full-length human RORγt (Homo sapiens (Human), UniProt P51449)",
    "Value Observed": "106* %"
  }
]

Provide only the value of recorded RORγt (FL) Reporter Assay B or C, % inhibition (value marked *) for C[C@H]1CCCCN1C(=O)c1nc(C(=O)NCC(C)(C)O)sc1-c1cnc(NC(C)(C)C)cc1C(F)(F)F [Example 80] 111* %

State its RORγt (FL) Reporter Assay B or C, % inhibition (value marked *) for this compound: C[C@H](NC(=O)c1nc(C(=O)N2CCC[C@@H]2C)c(-c2cnc(NC(C)(C)C)cc2C(F)(F)F)s1)[C@@H](C)O (relative stereo) [Example 238] 92* %

// Input: C[C@H](Nc1cc(C(F)F)c(-c2sc(C(=O)N[C@H](C)C(C)(C)O)nc2C(=O)N2CC(F)(F)C[C@@H]2C)cn1)C1CC1 [Example 194] . Output its RORγt (FL) Reporter Assay B or C, % inhibition (value marked *) only. 85* %
